System: A375 cells
assay_overview: MTT cytotoxicity assay, A375
Type: cell-based, human
measurement_setup: Homo sapiens, A-375, 24 h, A375, 100 μΜ, read-out: Cell Toxicity A375 % (100 μΜ)
recorded_metric: cytotoxicity at 100 µM (%)
Report as a plain number; the unit % is understood.

Qu. cytotoxicity at 100 µM of CC(=O)Oc1cccc2oc(=O)c(-c3ccc(F)cc3)c(C)c12 [Compound 3f] on A375 cells?
Ans. 35.8

Qu. cytotoxicity at 100 µM of COc1cc(C2Oc3cc([C@H]4Oc5cc(O)cc(O)c5C(=O)[C@@H]4O)ccc3OC2CO)ccc1O (stereo partly drawn) [Silibinin, reference compound] on A375 cells?
Ans. 84.4

Qu. cytotoxicity at 100 µM of CC(=O)Oc1ccc(-c2c(C)c3cc(Br)cc(Br)c3oc2=O)cc1 [Compound 3k] on A375 cells?
Ans. 28.8

Qu. cytotoxicity at 100 µM of CC(=O)Oc1cccc2oc(=O)c(-c3ccccc3F)c(C)c12 [Compound 3d] on A375 cells?
Ans. 28.5

Qu. cytotoxicity at 100 µM of Cc1c(-c2cccc(Cl)c2)c(=O)oc2cccc(O)c12 [Compound 4b] on A375 cells?
Ans. 52.8

Qu. cytotoxicity at 100 µM of Cc1c(-c2ccc(O)cc2)c(=O)oc2ccccc12 [Compound 4h] on A375 cells?
Ans. 12.6

Qu. cytotoxicity at 100 µM of CC(=O)Oc1ccc(-c2c(C)c3cc(Cl)ccc3oc2=O)cc1OC(C)=O [Compound 3n] on A375 cells?
Ans. 11.5

* * *

assay_overview: MTT cell viability assay, HaCaT
Type: cell-based, human
measurement_setup: human, HaCaT cells, 100 μΜ, 24 h
recorded_metric: viability at 24 h, 100 μM (%)
Report as a plain number; the unit % is understood.

Qu. Please give the measured viability at 24 h, 100 μM for this molecule: `Cc1c(-c2ccc(O)cc2)c(=O)oc2ccccc12`
Ans. 100

Qu. Please give the measured viability at 24 h, 100 μM for this molecule: `CC(=O)Oc1ccc(-c2c(C)c3ccccc3oc2=O)cc1`
Ans. 96.2

Qu. Please give the measured viability at 24 h, 100 μM for this molecule: `CC(=O)Oc1cccc2oc(=O)c(-c3ccccc3F)c(C)c12`
Ans. 100

Qu. Please give the measured viability at 24 h, 100 μM for this molecule: `Cc1c(-c2ccc(Cl)cc2)c(=O)oc2cccc(O)c12`
Ans. 63.7

Qu. Please give the measured viability at 24 h, 100 μM for this molecule: `Cc1c(-c2cccc(Cl)c2)c(=O)oc2cccc(O)c12`
Ans. 100

Qu. Please give the measured viability at 24 h, 100 μM for this molecule: `CC(=O)Oc1cccc2oc(=O)c(-c3cccc(Cl)c3)c(C)c12`
Ans. 100

Qu. Please give the measured viability at 24 h, 100 μM for this molecule: `CC(=O)Oc1ccc(-c2c(C)c3cc(Br)cc(Br)c3oc2=O)cc1OC(C)=O`
Ans. 100

Qu. Please give the measured viability at 24 h, 100 μM for this molecule: `CC(=O)Oc1cccc2oc(=O)c(-c3cccc(Br)c3)c(C)c12`
Ans. 100

Qu. Please give the measured viability at 24 h, 100 μM for this molecule: COc1cc(C2Oc3cc([C@H]4Oc5cc(O)cc(O)c5C(=O)[C@@H]4O)ccc3OC2CO)ccc1O (stereo partly drawn) [Silibinin, reference compound]
Ans. 35.7

Qu. Please give the measured viability at 24 h, 100 μM for this molecule: `CC(=O)Oc1cccc2oc(=O)c(-c3ccc(Cl)cc3)c(C)c12`
Ans. 100

Qu. Please give the measured viability at 24 h, 100 μM for this molecule: `Cc1c(-c2ccc(O)cc2)c(=O)oc2ccc(Cl)cc12`
Ans. 73

Qu. Please give the measured viability at 24 h, 100 μM for this molecule: `CC(=O)Oc1ccc(-c2c(C)c3cc(Br)ccc3oc2=O)cc1OC(C)=O`
Ans. 100

Hello, the source for this data is paper PMC8512853, in case you need it.
